target.or.test.system: T1, TIGIT (human)
T1 chain: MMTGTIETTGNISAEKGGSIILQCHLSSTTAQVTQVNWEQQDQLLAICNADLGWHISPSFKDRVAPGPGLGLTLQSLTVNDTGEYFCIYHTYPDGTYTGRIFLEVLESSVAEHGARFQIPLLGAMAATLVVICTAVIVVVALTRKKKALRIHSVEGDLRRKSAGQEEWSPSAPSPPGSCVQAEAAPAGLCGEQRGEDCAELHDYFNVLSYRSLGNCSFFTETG
method: cell-based or functional assay
quantity: IL-2 luciferase reporter, Normalized Fold Change from CD155-ECD (fold)
Report only the number, with the unit fold understood.

Use the examples below as a reference point.
Inquiry: Look up IL-2 luciferase reporter, Normalized Fold Change from CD155-ECD: variant CD155 IgV-Fc V9L, P18Y, V25A, V38G, M55V, A77T, L79P, M90I, F91S, L104M (Fc fusion) WPPPGTGDLVVQAPTQVYGFLGDSATLPCYLQVPNMEGTHVSQLTWARHGESGSVAVFHQTQGPSYSESKRLEFVATRPGAELRNASLRISGLRVEDEGNYTCMFVTFPQGSRSVDIWLRVLGSGGGGSEPKSSDKTHTCPPCPAPEAEGAPSVFLFPPKPKDTLMISRTPEVTCVVVDVSHEDPEVKFNWYVDGVEVHNAKTKPREEQYNSTYRVVSVLTVLHQDWLNGKEYKCKVSNKALPAPIEKTISKAKGQPREPQVYTLPPSRDELTKNQVSLTCLVKGFYPSDIAVEWESNGQPENNYKTTPPVLDSDGSFFLYSKLTVDKSRWQQGNVFSCSVMHEALHNHYTQKSLSLSPGK
Reply text: 1.2

Inquiry: Any idea what its IL-2 luciferase reporter, Normalized Fold Change from CD155-ECD is? The binder is variant CD155 IgV-Fc P18S, Q62K, K70E, L79P, F91S, G92E, R113W (Fc fusion) WPPPGTGDVVVQAPTQVSGFLGDSVTLPCYLQVPNMEVTHVSQLTWARHGESGSMAVFHQTKGPSYSESERLEFVAARPGAELRNASLRMSELRVEDEGNYTCLFVTFPQGSWSVDIWLRVLGSGGGGSEPKSSDKTHTCPPCPAPEAEGAPSVFLFPPKPKDTLMISRTPEVTCVVVDVSHEDPEVKFNWYVDGVEVHNAKTKPREEQYNSTYRVVSVLTVLHQDWLNGKEYKCKVSNKALPAPIEKTISKAKGQPREPQVYTLPPSRDELTKNQVSLTCLVKGFYPSDIAVEWESNGQPENNYKTTPPVLDSDGSFFLYSKLTVDKSRWQQGNVFSCSVMHEALHNHYTQKSLSLSPGK
Reply text: 2

Inquiry: // query IL-2 luciferase reporter, Normalized Fold Change from CD155-ECD value for entry variant CD155 IgV-Fc V9L, P18L, M55V, S69L, L79P, A81E, F91S, T107M (Fc fusion) WPPPGTGDLVVQAPTQVLGFLGDSVTLPCYLQVPNMEVTHVSQLTWARHGESGSVAVFHQTQGPSYSELKRLEFVAARPGEELRNASLRMSGLRVEDEGNYTCLFVMFPQGSRSVDIWLRVLGSGGGGSEPKSSDKTHTCPPCPAPEAEGAPSVFLFPPKPKDTLMISRTPEVTCVVVDVSHEDPEVKFNWYVDGVEVHNAKTKPREEQYNSTYRVVSVLTVLHQDWLNGKEYKCKVSNKALPAPIEKTISKAKGQPREPQVYTLPPSRDELTKNQVSLTCLVKGFYPSDIAVEWESNGQPENNYKTTPPVLDSDGSFFLYSKLTVDKSRWQQGNVFSCSVMHEALHNHYTQKSLSLSPGK
Reply text: 3.1

Consider the record given below.
Inquiry: Which IL-2 luciferase reporter, Normalized Fold Change from CD155-ECD is reported for this binder? variant CD155 IgV-Fc P18F, E51V, S54G, Q60R, L79Q, E82G, S87T, M90I, F91S, G92R, T107M (Fc fusion) WPPPGTGDVVVQAPTQVFGFLGDSVTLPCYLQVPNMEVTHVSQLTWARHGVSGGMAVFHRTQGPSYSESKRLEFVAARQGAGLRNATLRISRLRVEDEGNYTCLFVMFPQGSRSVDIWLRVLGSGGGGSEPKSSDKTHTCPPCPAPEAEGAPSVFLFPPKPKDTLMISRTPEVTCVVVDVSHEDPEVKFNWYVDGVEVHNAKTKPREEQYNSTYRVVSVLTVLHQDWLNGKEYKCKVSNKALPAPIEKTISKAKGQPREPQVYTLPPSRDELTKNQVSLTCLVKGFYPSDIAVEWESNGQPENNYKTTPPVLDSDGSFFLYSKLTVDKSRWQQGNVFSCSVMHEALHNHYTQKSLSLSPGK
Reply text: 5.8
